TESTED_SYSTEM: recombinant human LTA4 hydrolase (rhLTA4H) (Homo sapiens)
Sequence (P09960 1-611): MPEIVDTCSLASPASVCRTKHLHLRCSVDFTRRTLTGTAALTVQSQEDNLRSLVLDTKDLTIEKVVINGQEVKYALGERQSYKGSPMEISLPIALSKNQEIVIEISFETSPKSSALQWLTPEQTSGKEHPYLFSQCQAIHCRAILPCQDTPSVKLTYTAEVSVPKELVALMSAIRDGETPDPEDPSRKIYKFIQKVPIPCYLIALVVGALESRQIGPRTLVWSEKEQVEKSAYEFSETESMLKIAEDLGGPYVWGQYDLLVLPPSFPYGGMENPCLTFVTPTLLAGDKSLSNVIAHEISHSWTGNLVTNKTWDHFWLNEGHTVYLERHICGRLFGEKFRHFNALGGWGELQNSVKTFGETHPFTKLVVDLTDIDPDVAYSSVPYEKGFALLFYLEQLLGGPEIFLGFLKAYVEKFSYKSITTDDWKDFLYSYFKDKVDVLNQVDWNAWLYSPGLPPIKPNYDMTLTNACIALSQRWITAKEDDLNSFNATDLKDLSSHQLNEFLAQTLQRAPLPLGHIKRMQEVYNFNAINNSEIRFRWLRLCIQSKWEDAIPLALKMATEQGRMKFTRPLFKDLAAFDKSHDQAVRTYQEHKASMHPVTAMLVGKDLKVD
PROTOCOL_TEXT: Recombinant human LTA4 hydrolase assay for LTA4 hydrolase inhibitor activity
MEASUREMENT_CONTEXT: Recombinant Human LTA4 Hydrolase Assay IC50 LTA4H, recombinant hLTA4H
pIC50: −log10 of the molar value.
QUANTITY_KIND: pIC50

Reference set (3 entries):
                                   molecule  quantity_kind  reported_result
0         Clc1cccc(Cc2ccc(OCCN3CCCC3)cc2)c1          pIC50             7.25
1  CCOC(=O)CCNC(=O)C1CCN(CCOc2ccc(Cc3ccccc3)cc2)CC1          pIC50             5.49
2  O=C(O)C1CCN(CCOc2ccc(Cc3cccc(F)c3)cc2)CC1          pIC50             6.14

A. CNC(=O)C1CCN(CC2Cc3cc(Oc4ccccc4)ccc3O2)CC1 (stereo not drawn)
B. c1ccc2nc(Cc3ccc(OCCN4CCCC4)cc3)ccc2c1
Asked: Of A versus B , which is the one with smaller reported pIC50? Mark your selection by writing its label.
Given back: B
(B: 5.37, A: 6.15)

###

TESTED_SYSTEM: recombinant human LTA4 hydrolase (rhLTA4H) (Homo sapiens)
PROTOCOL_TEXT: Recombinant human LTA4 hydrolase assay for LTA4 hydrolase inhibitor activity
MEASUREMENT_CONTEXT: Recombinant Human LTA4 Hydrolase Assay IC50 LTA4H, recombinant hLTA4H
pIC50: −log10 of the molar value.
QUANTITY_KIND: pIC50

Worked set:
>>> df
                                   compound  quantity_kind  reported_result
0  O=C(NC1CCN(CCOc2ccc(Cc3ccccc3)cc2)CC1)c1cc2ccccc2o1 [Example 248]          pIC50             6.70
1  OCC1CCCN1CCOc1ccc(Cc2ccccc2)cc1 (stereo not shown) [Example 385]          pIC50             6.85
2  CCOC(=O)CC1CCN(CCOc2ccc(Cc3ccccc3)cc2)CC1 [Example 301]          pIC50             5.35
3  CCOC(=O)CC1CCN(CCCOc2ccc(Cc3ccccc3)cc2)CC1 [Example 302]          pIC50             5.52

P. CC(C)(C)OC(=O)C1CCN(CCCOc2ccc(Cc3ccccc3)cc2)CC1 [Example 263]
Q. CC(CN(C)CCCOc1ccc(Cc2ccccc2)cc1)C(=O)O (stereo not shown) [Example 432]
R. c1csc(COc2ccc(OCCN3CCCC3)cc2)c1 [Example 215]
Asked: I would appreciate it if you could sort these 3 compounds by pIC50, starting from the smallest number. I would appreciate it if you listed the labels in the requested order.
Given back: P, Q, R
(P: 5.35, Q: 6.85, R: 7.07)

###

TESTED_SYSTEM: recombinant human LTA4 hydrolase (rhLTA4H) (Homo sapiens)
PROTOCOL_TEXT: Recombinant human LTA4 hydrolase assay for LTA4 hydrolase inhibitor activity
MEASUREMENT_CONTEXT: Recombinant Human LTA4 Hydrolase Assay IC50 LTA4H, recombinant hLTA4H
Counter-ions that a name gives are not always drawn.
QUANTITY_KIND: IC50 (nM)

// solved cases for IC50 follow
                                   compound                             tested_system  reported_result
0           COc1cc(Cc2ccccc2)ccc1OCCN1CCCC1  recombinant human LTA4 hydrolase (rhLTA4H) (Homo sapiens)            25000
1  COC(=O)C1CC2CCC(C1)N2CC1Cc2cc(Cc3ccccc3)ccc2O1 (stereo not drawn)  recombinant human LTA4 hydrolase (rhLTA4H) (Homo sapiens)               19
2      c1cc(OCCN2CCCC2)ccc1Cc1ccc2c(c1)OCO2  recombinant human LTA4 hydrolase (rhLTA4H) (Homo sapiens)              170
3     c1ccc(Oc2ccc(OCCn3cnc4cnccc43)cc2)cc1  recombinant human LTA4 hydrolase (rhLTA4H) (Homo sapiens)              300
4  CC(=O)N[C@@H]1CCN(CCOc2ccc(Cc3ccccc3)cc2)[C@@H](C)C1 (relative stereo)  recombinant human LTA4 hydrolase (rhLTA4H) (Homo sapiens)               60

I. [O-][n+]1cccc2c1ncn2CCOc1ccc(Cc2ccccc2)cc1
II. c1ccc(Oc2ccc(NCCN3CCCC3)cc2)cc1 [Example 71, monohydrochloride]
Asked: Of the two listed items, I and II , which carries the larger IC50 figure? # respond with the chosen item's label
Given back: II

I. Oc1ccc(Cc2ccc(OCCN3CCCC3)cc2)cc1
II. FC(F)(F)c1cccc(COc2ccc(OCCN3CCCC3)cc2)c1
III. CC(CN(C)CCCOc1ccc(Cc2ccccc2)cc1)C(=O)OCc1ccccc1 (stereo not drawn)
Asked: Number of compounds to sort: 3. Sort criterion: IC50, ascending. List the labels according to the requested ordering.
Given back: I, II, III
(I: 30 nM, II: 3000 nM, III: 4300 nM)

###

TESTED_SYSTEM: recombinant human LTA4 hydrolase (rhLTA4H) (Homo sapiens, UniProt P09960)
PROTOCOL_TEXT: Recombinant human LTA4 hydrolase assay for LTA4 hydrolase inhibitor activity
MEASUREMENT_CONTEXT: Recombinant Human LTA4 Hydrolase Assay IC50 LTA4H, recombinant hLTA4H
QUANTITY_KIND: IC50 (nM)

Below, 5 molecules whose answers are already recorded.
>>> print(df.to_string())
                                 molecule                             tested_system  unit_annotation  reported_result
0        Fc1ccc(Oc2ccc(OCCN3CCCC3)cc2)cc1  recombinant human LTA4 hydrolase (rhLTA4H) (Homo sapiens, UniProt P09960)               nM              150
1  NC(=O)C1CCN(CCOc2ccc(Cc3ccccc3)cn2)CC1  recombinant human LTA4 hydrolase (rhLTA4H) (Homo sapiens, UniProt P09960)               nM             1060
2   c1ccc2ncc(Cc3ccc(OCCN4CCCC4)cc3)cc2c1  recombinant human LTA4 hydrolase (rhLTA4H) (Homo sapiens, UniProt P09960)               nM               84
3         c1ccc(Oc2ccc(OCCN3CCCC3)nc2)cc1  recombinant human LTA4 hydrolase (rhLTA4H) (Homo sapiens, UniProt P09960)               nM              110
4   c1ccc(Cc2ccc(OCCn3cnc4cnccc43)cc2)cc1  recombinant human LTA4 hydrolase (rhLTA4H) (Homo sapiens, UniProt P09960)               nM              120

P. C[C@@H]1C[C@H](C(N)=O)CCN1CCOc1ccc(Cc2ccccc2)cc1 (relative stereo)
Q. O=C(CCNCCCOc1ccc(Cc2ccccc2)cc1)OCc1ccccc1
Asked: Quick one: lower IC50, P or Q ? Kindly give the label for the entry you pick.
Given back: P

###

TESTED_SYSTEM: recombinant human LTA4 hydrolase (rhLTA4H) (Homo sapiens, UniProt P09960)
Sequence (P09960 1-611): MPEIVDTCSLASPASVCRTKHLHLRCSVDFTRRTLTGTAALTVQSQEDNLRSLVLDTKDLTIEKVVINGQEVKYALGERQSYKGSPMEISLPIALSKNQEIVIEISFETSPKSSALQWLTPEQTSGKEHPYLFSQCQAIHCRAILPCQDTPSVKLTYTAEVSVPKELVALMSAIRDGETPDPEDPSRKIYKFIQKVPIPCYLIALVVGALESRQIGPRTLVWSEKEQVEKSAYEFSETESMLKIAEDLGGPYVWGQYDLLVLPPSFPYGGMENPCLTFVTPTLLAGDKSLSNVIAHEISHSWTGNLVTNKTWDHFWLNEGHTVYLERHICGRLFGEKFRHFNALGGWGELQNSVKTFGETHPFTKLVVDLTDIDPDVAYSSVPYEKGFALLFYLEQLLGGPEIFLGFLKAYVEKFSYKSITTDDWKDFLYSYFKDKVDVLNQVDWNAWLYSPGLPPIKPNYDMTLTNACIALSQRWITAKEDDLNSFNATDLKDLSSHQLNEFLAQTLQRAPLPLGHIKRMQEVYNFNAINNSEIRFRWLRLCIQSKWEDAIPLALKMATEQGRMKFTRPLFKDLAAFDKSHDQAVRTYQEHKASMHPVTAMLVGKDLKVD
PROTOCOL_TEXT: Recombinant human LTA4 hydrolase assay for LTA4 hydrolase inhibitor activity
MEASUREMENT_CONTEXT: Recombinant Human LTA4 Hydrolase Assay IC50 LTA4H, recombinant hLTA4H
pIC50: −log10 of the molar value.
QUANTITY_KIND: pIC50

Example entries begin here.
                                   compound  reported_result
0  CC1CC(c2nnn[nH]2)CCN1CCOc1ccc(Cc2ccccc2)cc1 (stereo not shown)             8.22
1   c1ccc(Cc2ccc(OCCCn3ccc4ncnc-4c3)cc2)cc1             7.00
2        CCOC(=O)CCNCCCOc1ccc(Cc2ccccc2)cc1             7.11
3     O=C(O)C1CCN(CCOc2ccc(Cc3ccsc3)cc2)CC1             4.74
4   CNC(=O)C1CCN(CCOc2ccc(Oc3ccccc3)cc2)CC1             6.55

I. c1ccc(Oc2ccc(OCCCn3cnc4ccncc43)cc2)cc1
II. c1ccc(Cc2ccc(OCCCn3cnc4cnccc43)cc2)cc1
III. NC(=O)CCNC(=O)C1CCN(CCOc2ccc(Cc3ccccc3)cc2)CC1
IV. OC1CCN(CCOc2ccc(Cc3ccccc3)cc2)CC1
V. C=CCN(CCCOc1ccc(Cc2ccccc2)cc1)CCC(=O)OCc1ccccc1
Asked: Put the items in sequence by pIC50, from largest down. Please reply with the labels ordered as requested. Many thanks.
Given back: IV, II, III, I, V
(IV: 7.00, II: 6.77, III: 6.39, I: 5.97, V: 4.92)

Just for reference, patent US6506876B1 is where these values come from.
